test: Quantitative High-Throughput drug screen in 47 multiple myeloma cell lines against the NCATS MIPE library collection: UTMC2_PLB cell viability assay (AID 1919868); conditions: CellTiter-Glo ATP luminescence, 48 h; also: nearly all actives have a fitted effect of over 55% in size
Records with an inconclusive call do not appear. The source made the active and inactive calls. Calls follow the shape of the dose curve; as a rule, active = well fitted cell-killing curve with a large enough effect; inconclusive = small, poorly fitted or top-dose-only effect, or effect the other way; inactive = no such curve, though single readings can be large or run the other way.
Pick one: yes (1) (active), no (0) (inactive)

molecule=O=C(NCc1ccccc1)c1csc(Nc2ccncn2)n1 classification="yes (1)"

Input line: Test call for this molecule, please: COc1cccc2c1CCCC2CCCN1CCN(C2CCCCC2)CC1 (stereo unspecified)
Output line: yes (1)

Input line: Test call for this molecule, please: CC[C@@]1(O)C[C@H](O[C@H]2C[C@H](N(C)C)[C@H](O[C@H]3C[C@H](O)[C@H](O[C@H]4CCC(=O)[C@H](C)O4)[C@H](C)O3)[C@H](C)O2)c2c(cc3c(c2O)C(=O)c2c(O)cccc2C3=O)[C@@H]1C(=O)OC
Output line: yes (1)

Input line: Test call for this molecule, please: OC[C@H]1O[C@@H](n2cnc3c2NC=NC[C@@H]3O)C[C@H]1O
Output line: no (0)

Input line: Test call for this molecule, please: COC(=O)N[C@H](C(=O)N1CCC[C@@H]1c1ncc(-c2ccc(-c3ccc(-c4cnc([C@@H]5CCCN5C(=O)[C@@H](NC(=O)OC)C(C)C)[nH]4)cc3)cc2)[nH]1)C(C)C
Output line: no (0)

Input line: Test call for this molecule, please: NC[C@@H]1O[C@@H](O[C@H]2[C@@H](O)[C@H](O[C@@H]3[C@@H](O)[C@@H](N)C[C@H](N)[C@H]3O[C@H]3O[C@H](CN)[C@@H](O)[C@@H](O)[C@H]3N)O[C@H]2CO)[C@H](N)[C@@H](O)[C@@H]1O
Output line: no (0)

====

test system: HEK293; assay: Cytotoxic Profiling of Annotated Libraries Using Quantitative High-Throughput Screening (AID 1296008); settings: Five cell lines viability, CellTiter-Glo ATP luminescence, 48-72 h; also: nearly all actives have a fitted effect of over 60% in size
Results filed as inconclusive are left out. The source made the active and inactive calls. Calls follow the shape of the dose curve; as a rule, active = well fitted inhibition curve with a large enough effect; inconclusive = small, poorly fitted or top-dose-only effect; inactive = flat fitted curve, though single readings scatter.
Pick one: t (active), f (inactive)

Worked cases, answers included:
compound=CC(C)OC(=O)CCCC=CC[C@@H]1[C@H](C=C[C@@H](O)COc2cccc(C(F)(F)F)c2)[C@H](O)C[C@@H]1O classification=t
compound=Cc1c[nH]c(C=C2C(=O)Nc3ccccc32)c1CCC(=O)O classification=t
compound=C[C@@H](O)[C@H]1C(=O)N2C(C(=O)O)=C(S[C@@H]3CN[C@H](C(=O)N(C)C)C3)[C@H](C)[C@H]12 classification=f
compound=O=C1C(Cl)=C(NCCN2CCOCC2)C(=O)c2ncccc21 classification=t
compound=CC(C)(C)NC(=O)Nc1cccc(Nc2ncc(F)c(NC(C)(C)CO)n2)c1 classification=t
compound=O=C(OCC#CCSc1nnc(-c2cccc3ccccc23)o1)c1cc2ccccc2s1 classification=f
compound=Cc1c(NC(=O)c2ccc(C(C)(C)C)cc2)cccc1-c1cn(C)c(=O)c(Nc2ccc(C(=O)N3CCOCC3)cc2)n1 classification=t
compound="CCNc1cc(NC2CCC(O)CC2)nc(Nc2ccc3c(ccn3Cc3ccccc3)c2)n1 (stereo not given)" classification=t
compound=CC(=O)N[C@@H](CS)C(=O)O classification=f

Input line: Test call for this compound, please: Cc1ccc(/C=N/NC(=O)c2ccccc2Oc2ccccc2)o1
Output line: t
